Tested on: Puccinia recondita tritici (PUCCRT)
Test: Leaf rust of wheat foliar protectant test
Type: in vivo
Conditions: 200 ppm foliar, inoculated one day after treatment, read-out: Activity against fungal diseases PUCCRT
reported-property: pest or weed control at 200 ppm

Give pest or weed control at 200 ppm for Cc1cc(CCNc2ncnc3c(F)ccc(F)c23)c(C)cc1O
50 to 79%

Give pest or weed control at 200 ppm for Fc1nc(C(F)(F)F)nc(Oc2ccc(CCNc3ncnc4c(F)ccc(F)c34)cc2)c1F
0 to 49%

Give pest or weed control at 200 ppm for Cc1cc(CCNc2ncnc3c(F)ccc(F)c23)ccc1Oc1nc(C(F)(F)F)nc(F)c1F
80 to 100%

Give pest or weed control at 200 ppm for Cc1c(CCNc2ncnc3c(F)ccc(F)c23)ccc(Oc2cc(C(F)(F)F)ccn2)c1C
80 to 100%

Give pest or weed control at 200 ppm for COc1cc(CCNc2ncnc3c(F)ccc(F)c23)ccc1Oc1nc(C(F)(F)F)nc(F)c1F
50 to 79%

Give pest or weed control at 200 ppm for CC(C)Oc1cc(CCNc2ncnc3c(F)ccc(F)c23)ccc1Oc1cc(C(F)(F)F)ccn1
80 to 100%

Give pest or weed control at 200 ppm for [O-][n+]1ccc(C(F)(F)F)c(Oc2ccc(CCNc3ncnc4c(F)ccc(F)c34)cc2)c1
80 to 100%

Give pest or weed control at 200 ppm for Fc1ccc(F)c2c(NCCc3ccc(Oc4cc(C(F)(F)F)ccn4)cc3)ncnc12
80 to 100%

Give pest or weed control at 200 ppm for COc1cc(CCNc2ncnc3c(F)cc(F)c(F)c23)ccc1Oc1cc(C(F)(F)F)ccn1
80 to 100%

Give pest or weed control at 200 ppm for Oc1ccc(CCNc2ncnc3c(F)cc(F)c(F)c23)cc1Cl
0 to 49%

Give pest or weed control at 200 ppm for Cc1cc(CCNc2ncnc3c(F)ccc(F)c23)ccc1Oc1cc(C(C)(F)F)ccn1
80 to 100%

Give pest or weed control at 200 ppm for N#Cc1cc(Oc2ccc(CCNc3ncnc4c(F)ccc(F)c34)cc2)ncc1Cl
80 to 100%

Give pest or weed control at 200 ppm for Fc1cc(CCNc2ncnc3c(F)ccc(F)c23)ccc1Oc1ccc(C(F)(F)F)cn1
80 to 100%

Give pest or weed control at 200 ppm for Oc1cccc(CCNc2ncnc3c(F)ccc(F)c23)c1
50 to 79%

Give pest or weed control at 200 ppm for Cc1cc(CCNc2ncnc3c(F)ccc(F)c23)ccc1Oc1ccncc1C(F)(F)F
80 to 100%

Give pest or weed control at 200 ppm for COc1cc(C(F)(F)F)cc(Oc2ccc(CCNc3ncnc4c(F)ccc(F)c34)c(C)c2C)n1
80 to 100%

Give pest or weed control at 200 ppm for COc1cc(CCNc2ncnc3c(F)ccc(F)c23)ccc1Oc1ccc(C(F)(F)F)cn1
80 to 100%

* * *

Would you kindly list pest or weed control at 200 ppm for each of these compounds?
Test system: Pseudoperonospora cubensis (PSPECU)
Test: Cucumber downy mildew foliar protectant test
Format: in vivo
Settings: 200 ppm foliar, inoculated one day after treatment, read-out: Activity against fungal diseases PSPECU

Give pest or weed control at 200 ppm for Fc1ccc(F)c2c(NCCc3ccc(Oc4cnccc4C(F)(F)F)c(Cl)c3)ncnc12
80 to 100%

Give pest or weed control at 200 ppm for Cc1cc(CCNc2ncnc3c(F)ccc(F)c23)c(C)cc1O
0 to 49%

Give pest or weed control at 200 ppm for COc1cc(C(C)(F)F)cc(Oc2ccc(CCNc3ncnc4c(F)ccc(F)c34)cc2)n1
80 to 100%

Give pest or weed control at 200 ppm for COC(=O)c1cnc(Oc2ccc(CCNc3ncnc4c(F)ccc(F)c34)cc2C)cc1C(F)(F)F
80 to 100%
